# Tested on: HIV infected lymphocyte derived CEM cells
# MEASUREMENT_DESCRIPTION: Cellular infection assay in CEM cells, XTT cytopathic procedure (EC50)
# MEASUREMENT_CONDITIONS: CEM cells; TC50/EC50

{"COMPOUND": "Cc1ccc(C(C)(C)C)c(SC2=C(O)CC(CCc3ccc(CO)s3)(C(C)C)OC2=O)c1 (racemic)", "TI (therapeutic index, TC50/EC50)": 8}
{"COMPOUND": "Cc1cc(SC2=C(O)CC(CCc3ccsc3)(C(C)C)OC2=O)c(C(C)(C)C)cc1NS(=O)(=O)c1ccc(C(F)(F)F)cn1 (racemic)", "TI (therapeutic index, TC50/EC50)": 110}
{"COMPOUND": "Cc1cc(SC2=C(O)CC(CCc3sccc3C)(C(C)C)OC2=O)c(C(C)(C)C)cc1N (racemic)", "TI (therapeutic index, TC50/EC50)": 54}
{"COMPOUND": "Cc1cc(SC2=C(O)CC(CCc3ccsc3CO)(C(C)C)OC2=O)c(C(C)(C)C)cc1N (stereo not shown)", "TI (therapeutic index, TC50/EC50)": 458}
{"COMPOUND": "Cc1cc(SC2=C(O)CC(CCc3scnc3C)(C(C)C)OC2=O)c(C(C)(C)C)cc1CO (stereo not shown)", "TI (therapeutic index, TC50/EC50)": 443}
{"COMPOUND": "Cc1cc(SC2=C(O)CC(CCc3ccc4[nH]ccc4c3)(C(C)C)OC2=O)c(C(C)(C)C)cc1CO (racemic)", "TI (therapeutic index, TC50/EC50)": 68}
{"COMPOUND": "Cc1cc(SC2=C(O)C[C@@](CCc3ccsc3)(C(C)C)OC2=O)c(C(C)(C)C)cc1CO", "TI (therapeutic index, TC50/EC50)": 650}
